Entry source: ChEMBL document CHEMBL1124745

Catalogue of Relative Vmax values
- TEST: Evaluated for the rate of phosphorylation with bovine brain guanylate kinase.
- Assay type: ADME, Bos taurus
- CONDITION DETAILS: cattle

INPUT SMILES	Relative Vmax
Nc1nc2c(ncn2[C@@H]2O[C@H](COP(=O)(O)O)[C@H](O)[C@@H]2O)c(=O)[nH]1	100
Nc1nc(O)c2ncn(CCCOCP(=O)(O)O)c2n1	0.0024
Nc1nc2c(ncn2[C@H]2C[C@H](O)[C@@H](COP(=O)(O)O)O2)c(=O)[nH]1	14
Nc1nc2c(ncn2CCOCP(=O)(O)O)c(=O)[nH]1	0.11

----------
- Test system: Human alphaherpesvirus 1
- TEST: Evaluated for the antiviral activity against Herpes simplex virus type 1 (HSV-1).
- Assay type: organism-based
- CONDITION DETAILS: read-out: ID50 (the source's name)
Catalogue of IC50 values

COMPOUND	COMPARISON OPERATOR	IC50 / µg/mL
Nc1nc(O)c2ncn(CCCOCP(=O)(O)O)c2n1	=	65.5
Nc1nc(O)c2ncn(CCCCOCP(=O)(O)O)c2n1	>	145
Nc1nc2c(ncn2COCCP(=O)(O)O)c(=O)[nH]1	>	145
CC(COCP(=O)(O)O)n1cnc2c(O)nc(N)nc21 (centres undefined)	=	3

----------
- TEST: Evaluated for the second dissociation constant
- Format: ADME
- CONDITION DETAILS: read-out: pKa2

MOLECULE	pKa
Cc1cn([C@H]2C[C@H](O)[C@@H](COP(=O)(O)O)O2)c(=O)[nH]c1=O [THYMIDINE MONOPHOSPHATE]	6.5

----------
- TEST: Evaluated for the dissociation constant
- Type: ADME
- CONDITION DETAILS: read-out: pKa2
Catalogue of pKa values
QUANTITY KIND: pKa

MOLECULE	QUANTITY KIND	TEST VALUE
Nc1nc(O)c2ncn(CCSCP(=O)(O)O)c2n1	pKa	6.59
Nc1nc2c(ncn2COCCP(=O)(O)O)c(=O)[nH]1	pKa	6.76
Nc1nc(O)c2ncn(CCCC(F)(F)P(=O)(O)O)c2n1	pKa	5.52
Nc1nc2c(ncn2CCOCP(=O)(O)O)c(=O)[nH]1 [GS-438]	pKa	6.52
Nc1nc(O)c2ncn(CCCCP(=O)(O)O)c2n1	pKa	7.08

----------
Catalogue of Km values
- System: guanylate kinase
- TEST: Evaluated for the kinetic parameter Km, with bovine brain guanylate kinase.
- Format: ADME, Bos taurus
- CONDITION DETAILS: cattle

COMPOUND	TESTED SYSTEM	MEASUREMENT UNITS	Km
Nc1nc2c(ncn2[C@H]2C[C@H](O)[C@@H](COP(=O)(O)O)O2)c(=O)[nH]1	guanylate kinase	mM	1.2
Nc1nc2c(ncn2[C@@H]2O[C@H](COP(=O)(O)O)[C@H](O)[C@@H]2O)c(=O)[nH]1	guanylate kinase	mM	3.3
Nc1nc(O)c2ncn(CCCOCP(=O)(O)O)c2n1	guanylate kinase	mM	4.7
Nc1nc2c(ncn2CCOCP(=O)(O)O)c(=O)[nH]1	guanylate kinase	mM	2.7
CC(COCP(=O)(O)O)n1cnc2c(O)nc(N)nc21 (stereo not given)	guanylate kinase	mM	3.9

----------
Catalogue of IC50 values
- Tested on: Human alphaherpesvirus 1
- TEST: Evaluated for the antiviral activity against Herpes simplex virus type 1 (HSV-1) strain BWS by the plaque reduction assay
- Type: functional
- CONDITION DETAILS: read-out: ID50 (the source's name)

COMPOUND	TESTED SYSTEM	COMPARISON OPERATOR	IC50 [µg/mL]
CC(COCP(=O)(O)O)n1cnc2c(O)nc(N)nc21 (stereo unspecified)	Human alphaherpesvirus 1	=	2.92
Nc1nc(O)c2ncn(CCSCP(=O)(O)O)c2n1	Human alphaherpesvirus 1	>	100
Nc1nc(O)c2ncn(CCCOCP(=O)(O)O)c2n1	Human alphaherpesvirus 1	=	65.5
Nc1ncnc2c1ncn2CCCOCP(=O)(O)O	Human alphaherpesvirus 1	>	100
Nc1nc2c(ncn2COCCO)c(=O)[nH]1	Human alphaherpesvirus 1	=	0.5
Nc1nc(O)c2ncn(CCCC(F)(F)P(=O)(O)O)c2n1	Human alphaherpesvirus 1	>	100
Nc1nc2c(ncn2COCCP(=O)(O)O)c(=O)[nH]1	Human alphaherpesvirus 1	>	100
Nc1ncnc2c1ncn2CCOCP(=O)(O)O	Human alphaherpesvirus 1	=	21
Nc1nc(O)c2ncn(CCCCOCP(=O)(O)O)c2n1	Human alphaherpesvirus 1	>	100
Nc1nc(O)c2ncn(CCCCP(=O)(O)O)c2n1	Human alphaherpesvirus 1	>	100
Nc1nc2c(ncn2CCOCP(=O)(O)O)c(=O)[nH]1	Human alphaherpesvirus 1	=	0.08
